- system: PDIK1L (Homo sapiens)
- Construct: endogenous in cells
- Sequence (Q8N165 whole entry): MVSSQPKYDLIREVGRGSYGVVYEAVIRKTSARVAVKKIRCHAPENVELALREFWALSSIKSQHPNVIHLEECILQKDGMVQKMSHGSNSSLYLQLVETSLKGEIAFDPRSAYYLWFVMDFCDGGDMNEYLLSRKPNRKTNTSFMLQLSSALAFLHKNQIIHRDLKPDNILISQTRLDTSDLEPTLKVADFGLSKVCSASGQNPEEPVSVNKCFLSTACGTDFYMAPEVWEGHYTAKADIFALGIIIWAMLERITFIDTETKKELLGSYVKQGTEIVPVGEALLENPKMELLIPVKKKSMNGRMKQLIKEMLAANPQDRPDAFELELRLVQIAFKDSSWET
- assayInfo: KAM-matrix competition in K562 lysate
- conditionDescription: read-out: RB50 (the source's name)
- Method: Supplement 12953_2017_125_MOESM1_ESM.zip/MS_Supp Info.xlsx, sheet "KAM" | column: 10 uM KAM; 1 uM KAM; 0.1 uM KAM; 0.01 uM KAM; 0.001 uM KAM; RB50
measuredProperty: pIC50
pIC50 here is simply -log10 of the concentration when that concentration is written in mol/L.

Give the measured pIC50 of `N#CCc1ccc(Nc2nc(NCCCN)cc(Nc3cc(C4CC4)[nH]n3)n2)cc1` .
5.88
